B1: scFv; the commonest letter at each place (parent)
chain 1: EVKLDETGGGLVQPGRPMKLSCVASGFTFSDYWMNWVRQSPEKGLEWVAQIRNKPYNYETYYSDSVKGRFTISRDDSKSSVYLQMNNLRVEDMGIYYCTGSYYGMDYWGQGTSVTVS
chain 2: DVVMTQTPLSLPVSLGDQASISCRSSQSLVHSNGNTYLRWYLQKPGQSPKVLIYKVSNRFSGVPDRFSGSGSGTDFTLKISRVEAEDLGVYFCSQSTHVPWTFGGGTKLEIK

Variants of: B1
Measurement description: Kd (Tite-Seq)
Setup conditions: with fluorescein; format: scFv 4-4-20, heavy + light
Listed next: entries and their corresponding Kd.

Change | Kd
chain 1 W108A | 0.00209 µM
chain 1 Y103M | 0.0015 µM
chain 1 Y32A M34V | 0.0434 µM
chain 1 S101Q | ≥ 10 µM
chain 1 Y32H M34Q | ≥ 10 µM
chain 1 S101C G104C | ≥ 10 µM
chain 1 S101D G104D Y107K | ≥ 10 µM
chain 1 D31S V37N | ≥ 10 µM
chain 1 Y102E D106M | ≥ 10 µM
chain 1 F29L S30C N35A | ≥ 10 µM
chain 1 F29I | 0.00325 µM
chain 1 S30N W36N | ≥ 10 µM
chain 1 N35S | ≥ 10 µM
chain 1 G100I | ≥ 10 µM
chain 1 G100Q W108R | ≥ 10 µM
chain 1 Y103D W108H | 3.74 µM
chain 1 S101D | ≥ 10 µM
chain 1 D106N W108Q | ≥ 10 µM
chain 1 F29W S30V N35H | ≥ 10 µM
chain 1 T28S S30I | 0.00708 µM
chain 1 S101T | ≥ 10 µM
chain 1 F29Y S30A D31M | 0.216 µM
chain 1 F29N V37D | ≥ 10 µM
chain 1 F29N S30E | 0.0391 µM
chain 1 S30Q N35K | ≥ 10 µM
chain 1 G100K G109V | ≥ 10 µM
chain 1 Y102L G104W | ≥ 10 µM
chain 1 Y103I G104P G109M | ≥ 10 µM
chain 1 D31A W36H | ≥ 10 µM
chain 1 Y102H M105P | ≥ 10 µM
chain 1 F29M S30H Y32S | ≥ 10 µM
chain 1 W33Q N35Y | ≥ 10 µM
chain 1 T28M S30L | 0.0107 µM
chain 1 G104I G109K | ≥ 10 µM
chain 1 G100E D106H | ≥ 10 µM
chain 1 W33K M34T | ≥ 10 µM
chain 1 G104L W108G | ≥ 10 µM
chain 1 Y103K G109W | ≥ 10 µM
chain 1 D31N V37H | 0.47 µM
chain 1 D106K G109L | ≥ 10 µM
chain 1 F29P S30Q | 0.0132 µM
chain 1 Y103G M105S | ≥ 10 µM
chain 1 T28R W33G | ≥ 10 µM
chain 1 Y102K G109I | ≥ 10 µM
chain 1 S30Y W33G | ≥ 10 µM
chain 1 F29D M34I | ≥ 10 µM
